- Tested on: neutrophils
- assay-notes: Effects of the peptides on neutrophil apoptosis (annexin V / 7-AAD flow cytometry)
- Assay type: cell-based, human
- recorded-conditions: peptide concentration = 200 μM; 16 h at 37° C.; percentage annexin-V positive and 7-AAD negative
measure: Early Apoptosis, Mean
API note: the answer field is a bare number with no unit suffix.

Below, 5 sequences whose answers are already recorded.
APNQEKVSDYEMKLMRYIRS [peptide 1] : 62.52
YGRKKRRQRRRYYLAPKIEDEEGS [peptide 9] : 50.03
YYLAPKIEDEEGSRYIRS [peptide 8] : 40.67
SQTSNVDKEEEAVRYIRS [peptide 6] : 62.91
KDGVKFRYIRS [peptide 5] : 62.44

neutrophils / Early Apoptosis, Mean / MKLMDLDVEQLGIPEQEYSRYIRS [peptide 3] : value?
63.00

API: value(readout= Early Apoptosis, Mean, system= neutrophils, query= MSADVPLRYIRS [peptide 7] )
62.60

Find Early Apoptosis, Mean (neutrophils) for the entry YGRKKRRQRRRAPNQEKVSDYEMKLM [peptide 2]
52.29

Tell me reported Early Apoptosis, Mean for YGRKKRRQRRRMKLMDLDVEQLGIPEQEYS [peptide 4] , tested with neutrophils.
62.34

* * *

- Test system: neutrophils
- assay-notes: Effects of the peptides on neutrophil apoptosis (annexin V / 7-AAD flow cytometry)
- Assay type: cell-based, human
- recorded-conditions: peptide concentration = 500 μM; Table VI (peptides 5-9)
measure: Late Apoptosis

Answered cases to consult:
YGRKKRRQRRRYYLAPKIEDEEGS [peptide 9] : 26.32
SQTSNVDKEEEAVRYIRS [peptide 6] : 5.2
YYLAPKIEDEEGSRYIRS [peptide 8] : 8.99
KDGVKFRYIRS [peptide 5] : 5.39

Need Late Apoptosis, item MSADVPLRYIRS [peptide 7]
2.85

* * *

- Tested on: neutrophils
- assay-notes: Effects of the peptides on neutrophil apoptosis (annexin V / 7-AAD flow cytometry)
- Assay type: cell-based, human
- recorded-conditions: peptide concentration = 200 μM; 16 h at 37° C.; percentage of cells either 7-AAD or annexin-V-positive
Catalogue of Total Apoptosis, Mean readings, one per entry.
Please state the value as a number alone, without comment.

Take a look at these entries with their results.
KDGVKFRYIRS [peptide 5] : 74.36
MKLMDLDVEQLGIPEQEYSRYIRS [peptide 3] : 76.20

Tell me the measured Total Apoptosis, Mean of YGRKKRRQRRRMKLMDLDVEQLGIPEQEYS [peptide 4] , please.
89.83

Request the reported Total Apoptosis, Mean associated with SQTSNVDKEEEAVRYIRS [peptide 6]
76.02

// Total Apoptosis, Mean lookup, key: YGRKKRRQRRRYYLAPKIEDEEGS [peptide 9]
73.43

* * *

- System: neutrophils
- assay-notes: Effects of the peptides on neutrophil apoptosis (annexin V / 7-AAD flow cytometry)
- Format: cell-based, human
- recorded-conditions: peptide concentration = 200 μM; 16 h at 37° C.; percentage annexin-V positive and 7-AAD positive
Reported Late Apoptosis, Mean by item:
Just the number, please, no unit after it.

Take a look at these entries with their results.
MSADVPLRYIRS [peptide 7] : 12.30
YGRKKRRQRRRYYLAPKIEDEEGS [peptide 9] : 23.90
SQTSNVDKEEEAVRYIRS [peptide 6] : 13.11
YGRKKRRQRRRMKLMDLDVEQLGIPEQEYS [peptide 4] : 27.88
YGRKKRRQRRRAPNQEKVSDYEMKLM [peptide 2] : 17.38

Let us move to another entry and its Late Apoptosis, Mean.
Quick one: Late Apoptosis, Mean for APNQEKVSDYEMKLMRYIRS [peptide 1] ?
11.47

* * *

Total Apoptosis, Mean values, listed per item
- Test system: neutrophils
- assay-notes: Effects of the peptides on neutrophil apoptosis (annexin V / 7-AAD flow cytometry)
- Assay type: cell-based, human
- recorded-conditions: peptide concentration = 200 μM; 16 h at 37° C.; percentage of cells either 7-AAD or annexin-V-positive
Reply: number alone, nothing else.

Worked examples, 3 sequences total:
MSADVPLRYIRS [peptide 7] : 74.40
APNQEKVSDYEMKLMRYIRS [peptide 1] : 73.67
YYLAPKIEDEEGSRYIRS [peptide 8] : 46.43

We now examine a further sequence.
Need Total Apoptosis, Mean, item YGRKKRRQRRRAPNQEKVSDYEMKLM [peptide 2]
69.33

* * *

- Tested on: neutrophils
- assay-notes: Effects of the peptides on neutrophil apoptosis (annexin V / 7-AAD flow cytometry)
- Type: cell-based, human
- recorded-conditions: peptide concentration = 200 μM; 16 h at 37° C.; percentage annexin-V positive and 7-AAD positive
measure: Late Apoptosis, Mean

Requested read-out Late Apoptosis, Mean, target or system neutrophils, entry MKLMDLDVEQLGIPEQEYSRYIRS [peptide 3]
13.27

Given the entry KDGVKFRYIRS [peptide 5] , what Late Apoptosis, Mean was observed with neutrophils?
12.36

Write down the reported Late Apoptosis, Mean of YYLAPKIEDEEGSRYIRS [peptide 8] , test system: neutrophils.
6.23
